SUBJECT_OF_TEST: BCDIN3D (Homo sapiens)
Sequence (Q7Z5W3 1-292): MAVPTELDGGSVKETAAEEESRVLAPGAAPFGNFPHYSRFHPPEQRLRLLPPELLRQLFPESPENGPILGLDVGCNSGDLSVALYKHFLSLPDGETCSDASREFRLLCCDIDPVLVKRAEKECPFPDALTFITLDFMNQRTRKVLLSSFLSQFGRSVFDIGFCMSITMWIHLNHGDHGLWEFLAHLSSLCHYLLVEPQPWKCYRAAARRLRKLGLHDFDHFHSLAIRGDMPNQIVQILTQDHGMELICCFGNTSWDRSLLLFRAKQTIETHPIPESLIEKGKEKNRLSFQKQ
METHOD_DESCRIPTION: BCDIN3D IC50 RFMS (RapidFire) assay with mini-helix
Type: biochemical
PROTOCOL_CONDITIONS: mini-helix substrate 0.2 μM, SAM 6 μM, 25 nM enzyme
As shown below, each of these compounds has a reported IC50 value.

{"COMPOUND": "COC1CC(Nc2nc(NC[C@H](N)c3ccccc3)nc3c2cnn3C)C1 (stereo partly drawn)", "UNIT_ABBREVIATION": "nM", "IC50": 343}
{"COMPOUND": "[2H]C([2H])([2H])n1ncc2c(Nc3ccc(C(F)(F)F)cc3)nc(NCC(C)(N)c3ccccc3)nc21 (stereo not drawn)", "UNIT_ABBREVIATION": "nM", "IC50": 42.8}
{"COMPOUND": "Cn1ncc2c(Nc3ccc(C(F)F)cc3)nc(NCC3(N)CC3)nc21", "UNIT_ABBREVIATION": "nM", "IC50": 138}
{"COMPOUND": "Cc1ccc(CNc2nc(NCC(N)c3ccccc3)nc3c2cnn3C)cc1Cl (stereo not drawn)", "UNIT_ABBREVIATION": "nM", "IC50": 62.5}
{"COMPOUND": "Cn1ncc2c(Nc3ccc(F)cc3)nc(NCC3(N)CC3)nc21", "UNIT_ABBREVIATION": "nM", "IC50": 242}
{"COMPOUND": "Cn1ncc2c(Nc3ccc(F)cc3Cl)nc(NCC3(N)CC3)nc21", "UNIT_ABBREVIATION": "nM", "IC50": 5960}
{"COMPOUND": "Cn1ncc2c(NC(C)(C)C(F)(F)F)nc(NC[C@H](N)c3cccc(Br)c3)nc21", "UNIT_ABBREVIATION": "nM", "IC50": 41.7}
{"COMPOUND": "[2H]C([2H])([2H])n1ncc2c(NC(C)(C)C)nc(NCC(C)(N)c3ccccc3)nc21 (stereo not drawn)", "UNIT_ABBREVIATION": "nM", "IC50": 325}
{"COMPOUND": "[2H]C([2H])([2H])n1ncc2c(Nc3ccc(C(F)(F)F)cc3)nc(NCC(N)c3ccccc3)nc21 (stereo not drawn)", "UNIT_ABBREVIATION": "nM", "IC50": 38.5}
{"COMPOUND": "Cn1ncc2c(NC3(C(F)(F)F)CC3)nc(NC[C@H](N)c3ccccc3)nc21", "UNIT_ABBREVIATION": "nM", "IC50": 769}
{"COMPOUND": "Cn1ncc2c(Nc3ccc(OC(F)F)nc3)nc(NCC(C)(N)c3ccccc3)nc21 (stereo not drawn)", "UNIT_ABBREVIATION": "nM", "IC50": 116}
{"COMPOUND": "Cn1ncc2c(NCc3ccc(C(F)(F)F)nc3)nc(NCC(N)c3ccccc3)nc21 (stereo not drawn)", "UNIT_ABBREVIATION": "nM", "IC50": 1080}
{"COMPOUND": "Cn1ncc2c(Nc3ccc(F)c(Cl)c3)nc(NCC3(N)CC3)nc21", "UNIT_ABBREVIATION": "nM", "IC50": 262}
{"COMPOUND": "Cn1ncc2c(NC34CC(c5ccccc5)(C3)C4)nc(NCC3(N)CC3)nc21", "UNIT_ABBREVIATION": "nM", "IC50": 111}
{"COMPOUND": "Cn1ncc2c(NCc3ccc(F)c(Cl)c3)nc(NCC3(N)CC3)nc21", "UNIT_ABBREVIATION": "nM", "IC50": 505}
